// reported kon for each item listed
target: human NKp30 (human) (UniProt O14931)
Sequence (O14931 19-135 limits assumed): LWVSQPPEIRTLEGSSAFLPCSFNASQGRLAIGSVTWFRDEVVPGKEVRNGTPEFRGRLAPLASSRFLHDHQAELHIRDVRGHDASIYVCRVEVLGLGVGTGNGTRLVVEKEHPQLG
protocol details: BLI, immunoligand on anti-hFc tip
Use M⁻¹ s⁻¹ as the unit, but write only the number.

>  <binder>
ΔB7-H6_S2#5-SEED-PGLALA (bispecific antibody, part only; not given: SEED Fc chains and hu225 Fab, part only) chain, part: DLKVEMMAGGTQITPLNDNVTIFCNIFYSQPLNITSMGITWLWKSLTFDKEVKVFEFWGDHQEAFRPGAIVSPWRLKSGDASLRLPGIQLEEAGEYRCEVFVTPYKAQGTVQLEVVASPAS

>  <reported value>
585000

$$$$
>  <binder>
ΔB7-H6_S3#1-SEED-PGLALA (bispecific antibody, part only; not given: SEED Fc chains and hu225 EGFR Fab, part only) chain, part: DLKVEMMAGGTQITPLNDNVTIFCNIFYSQPLNITTMGITWFWKSLTFDKEVKVFEFWGDHQEAFRPGAIVSPWRLKSGDASLRLPGIQLEEAGEYRCEVVVTPYKAQGTVQLEVVASPAS

>  <reported value>
754000

$$$$
>  <binder>
ΔB7-H6_S3#10-SEED-PGLALA (bispecific antibody, part only; not given: SEED Fc chains and hu225 Fab, part only) chain, part: DLKVEMMAGGTQITPLNDNVTIFCNIFYSQPLNITSMGITWFWKSLTFDKEVKVFEFYGDHQEAFRPGAIVSPWRLKSGDASLRLPGIQLEEAGEYRCEVFVTPYKAQGTVQLEVVASPAS

>  <reported value>
689000

$$$$

## Input Please supply the value of reported kon for the item ΔB7-H6_S2#13-SEED-PGLALA (bispecific antibody, part only; not given: SEED Fc chains and hu225 Fab, part only) chain, part: DLKVEMMAGGTQITPLNDNVTIFCNIFYSQPLNITSMGITWFWKSLTFDKEVKVFEFWGDHQEAFRPGAIVSPWRLKSGDASLRLPGIQLEEAGEYRCEVVVTPYKAQGTVQLEVVASPAS
## Output 410000
